- measurement notes: Pharmacokinetic study in rat
- Assay type: in vivo
- condition set: male, Sprague-Dawley, plasma, po, SD rats, i.g. 5 mg/kg
result type: Tmax (min)

In [3]: df
Out[3]:
                                  structure  result_type  observed_measurement
0  O=C1c2cccnc2C(=O)c2c1c(C(=O)OCCN1CCOCC1)c1ccccn21         Tmax                  27.6

====

- measurement notes: Pharmacokinetic study in rat
- Assay type: in vivo
- condition set: male, Sprague-Dawley, plasma, oral, SD rats, i.g. 5 mg/kg vs i.v. 1 mg/kg, read-out: F (bioavailability)
result type: bioavailability (%)

                                  structure      result_type  observed_measurement
0  O=C1c2cccnc2C(=O)c2c1c(C(=O)OCCN1CCOCC1)c1ccccn21  bioavailability                   6.3

====

- measurement notes: Pharmacokinetic study in rat
- Assay type: in vivo
- condition set: male, Sprague-Dawley, plasma, iv, SD rats, i.v. 1 mg/kg
result type: AUC(0-inf) (ng·h/mL)

>>> print(df.to_string())
                                   molecule  observed_measurement
0  O=C1c2cccnc2C(=O)c2c1c(C(=O)OCCN1CCOCC1)c1ccccn21 [CYB-L10]                   241

====

- measurement notes: Pharmacokinetic study in rat
- Format: in vivo
- condition set: male, Sprague-Dawley, plasma, iv, SD rats, i.v. 1 mg/kg
result type: half-life

In [3]: df
Out[3]:
                                  structure  result_type  observed_measurement
0  O=C1c2cccnc2C(=O)c2c1c(C(=O)OCCN1CCOCC1)c1ccccn21    half-life                18.4 h

====

- measurement notes: Pharmacokinetic study in rat
- Assay type: in vivo
- condition set: male, Sprague-Dawley, plasma, po, SD rats, i.g. 5 mg/kg
result type: half-life (h)

>>> print(df.to_string())
                                   compound  result_units  observed_measurement
0  O=C1c2cccnc2C(=O)c2c1c(C(=O)OCCN1CCOCC1)c1ccccn21 [CYB-L10]             h                  18.4
